experiment: in vivo; settings: mouse, po, 3 mg/kg
// AUC(0-t) lookup, one value per entry
Your answer is read as ng·h/mL, so omit the unit and give the number.

molecule=CCCCNc1ncc(-c2ccc(CN3CCOCC3)cn2)c(N[C@H]2CC[C@H](O)CC2)n1 quantitative_readout=180
molecule=CCCCNc1ncc(-c2ccc(CNC3CC3)cn2)c(N[C@H]2CC[C@H](O)CC2)n1 quantitative_readout=103
molecule=CCCCNc1ncc(-c2ccc(CN3CCC(F)(F)CC3)cn2)c(N[C@H]2CC[C@H](O)CC2)n1 quantitative_readout=210

Ask | Tell me measured AUC(0-t) for CCCCNc1ncc(-c2ccc(S(=O)(=O)N3CCOCC3)cn2)c(N[C@H]2CC[C@H](O)CC2)n1 please.
Reply | 4.68

* * *

assay: in vivo; conditions: mouse, iv, 3 mg/kg
// half-life lookup, one value per entry
Your answer is read as h, so omit the unit and give the number.

Here is how some compounds turned out for half-life.
molecule=CCCCNc1ncc(-c2ccc(CNC3CC3)cn2)c(N[C@H]2CC[C@H](O)CC2)n1 quantitative_readout=4.71
molecule=CCCCNc1ncc(-c2ccc(CN3CCC(F)(F)CC3)cn2)c(N[C@H]2CC[C@H](O)CC2)n1 quantitative_readout=2.97
molecule=CCCCNc1ncc(-c2ccc(S(=O)(=O)N3CCOCC3)cn2)c(N[C@H]2CC[C@H](O)CC2)n1 quantitative_readout=0.91

Now, please, on to the next compound.
Ask | Tell me measured half-life for CCCCNc1ncc(-c2ccc(CN3CCOCC3)cn2)c(N[C@H]2CC[C@H](O)CC2)n1 please.
Reply | 1.59

* * *

// Cmax lookup, one value per entry
test: in vivo; settings: mouse, iv, 3 mg/kg
Your answer is read as ng/mL, so omit the unit and give the number.

Here is how some molecules turned out for Cmax.
molecule=CCCCNc1ncc(-c2ccc(CN3CCC(F)(F)CC3)cn2)c(N[C@H]2CC[C@H](O)CC2)n1 measured_metric=Cmax quantitative_readout=737
molecule=CCCCNc1ncc(-c2ccc(CNC3CC3)cn2)c(N[C@H]2CC[C@H](O)CC2)n1 measured_metric=Cmax quantitative_readout=277
molecule=CCCCNc1ncc(-c2ccc(CN3CCOCC3)cn2)c(N[C@H]2CC[C@H](O)CC2)n1 measured_metric=Cmax quantitative_readout=1980

Now, please, on to the next molecule.
Ask | Tell me measured Cmax for CCCCNc1ncc(-c2ccc(S(=O)(=O)N3CCOCC3)cn2)c(N[C@H]2CC[C@H](O)CC2)n1 please.
Reply | 1980

* * *

assay: in vivo; conditions: mouse, iv, 3 mg/kg
// AUC(0-t) lookup, one value per entry
Your answer is read as ng·h/mL, so omit the unit and give the number.

Here is how some molecules turned out for AUC(0-t).
molecule=CCCCNc1ncc(-c2ccc(S(=O)(=O)N3CCOCC3)cn2)c(N[C@H]2CC[C@H](O)CC2)n1 measured_metric=AUC(0-t) quantitative_readout=355
molecule=CCCCNc1ncc(-c2ccc(CN3CCOCC3)cn2)c(N[C@H]2CC[C@H](O)CC2)n1 measured_metric=AUC(0-t) quantitative_readout=794
molecule=CCCCNc1ncc(-c2ccc(CNC3CC3)cn2)c(N[C@H]2CC[C@H](O)CC2)n1 measured_metric=AUC(0-t) quantitative_readout=376

Now, please, on to the next molecule.
Ask | Tell me measured AUC(0-t) for CCCCNc1ncc(-c2ccc(CN3CCC(F)(F)CC3)cn2)c(N[C@H]2CC[C@H](O)CC2)n1 please.
Reply | 381
